Sourced from PubChem BioAssay (NCI)

# System: MOLT-4 leukemia
# method_description: NCI-60 one-dose screen, 48 h
# protocol_conditions: 10 µM unless noted
This is part of a sample that, as a whole, favours compounds with a hit. Of some 83,000 tested, about 20% had one in any assay. Active and inactive are the calls of the source. Rule for the calls: active = growth percent below 10; inactive = the rest.
Possible outcomes: active, inactive

>  <molecule>
CCOC(=O)c1cnc2ccc(Br)cc2c1Nc1cccc(S(=O)(=O)NC)c1

>  <measurement_target>
MOLT-4 leukemia

>  <discrete_label>
inactive

$$$$
>  <molecule>
CCC(=O)OCc1cccc(OC)c1

>  <measurement_target>
MOLT-4 leukemia

>  <discrete_label>
inactive

$$$$
>  <molecule>
COc1ccc(-c2c3c(nc4n[nH]c(-c5ccc(Cl)cc5)c24)-c2ccccc2C(=O)C3=O)cc1

>  <measurement_target>
MOLT-4 leukemia

>  <discrete_label>
active

$$$$
>  <molecule>
CC(C)CC(CC1=CCC2CC1C2(C)C)C1=C(O)C(C)(C)C(=O)C(C)(C)C1=O (stereo not given)

>  <measurement_target>
MOLT-4 leukemia

>  <discrete_label>
active

$$$$
>  <molecule>
COc1cc2nc3cc([N+](=O)[O-])ccc3c(NCCCNCC(C)(C)O)c2cc1OC

>  <measurement_target>
MOLT-4 leukemia

>  <discrete_label>
inactive

$$$$
>  <molecule>
COc1cc(OC)c(/C=C/S(=O)(=O)Cc2cnc(OC)c(N)c2)c(OC)c1

>  <measurement_target>
MOLT-4 leukemia

>  <discrete_label>
active

$$$$
>  <molecule>
CN1CCN(c2ccc3nc(-c4ccc5nc(-c6ccc(OCCC(C)(C)C)cc6)[nH]c5c4)[nH]c3c2)CC1

>  <measurement_target>
MOLT-4 leukemia

>  <discrete_label>
active

$$$$
>  <molecule>
Cc1ccn2c(-c3csc(Nc4cccc(O)c4)n3)c(C)nc2c1

>  <measurement_target>
MOLT-4 leukemia

>  <discrete_label>
active

$$$$
>  <molecule>
O=C1C(=O)N(CCCCn2cc(CO)nn2)c2ccccc21

>  <measurement_target>
MOLT-4 leukemia

>  <discrete_label>
inactive

$$$$
>  <molecule>
CN1C2CCC1/C(=C\c1ccc(Cl)cc1)C1=C2[C@@H](c2ccc(Cl)cc2)C(C#N)=C(N)O1 (stereo not given in full)

>  <measurement_target>
MOLT-4 leukemia

>  <discrete_label>
inactive

$$$$
>  <molecule>
O=C(Nc1ccc(Nc2cc(Nc3ccccc3)ncn2)cc1)Nc1cc(C(F)(F)F)ccc1F

>  <measurement_target>
MOLT-4 leukemia

>  <discrete_label>
inactive

$$$$
>  <molecule>
CCOC(=O)C(Cc1cc(I)c(O)c(I)c1)NC(=O)c1ccccc1 (stereo not given)

>  <measurement_target>
MOLT-4 leukemia

>  <discrete_label>
inactive

$$$$
>  <molecule>
O=C(Nc1ccc(F)cc1)Nc1ccc(CCO)cc1

>  <measurement_target>
MOLT-4 leukemia

>  <discrete_label>
inactive

$$$$
>  <molecule>
O=C(CCCCN1CCOCC1)Nc1ccc(Cn2nnc3c2C(=O)c2nnn(Cc4ccc(NC(=O)CCCCN5CCOCC5)cc4)c2C3=O)cc1

>  <measurement_target>
MOLT-4 leukemia

>  <discrete_label>
active

$$$$
>  <molecule>
CN1CCN(Cc2ccc(NC(=O)c3cncc(C#Cc4cnc(N)c5cccnc45)c3)cc2C(F)(F)F)CC1

>  <measurement_target>
MOLT-4 leukemia

>  <discrete_label>
inactive

$$$$
>  <molecule>
CCC(=O)Oc1ccc(/C(=C(\C)c2ccccc2)c2ccc(OCCN(CC)CC)cc2)cc1

>  <measurement_target>
MOLT-4 leukemia

>  <discrete_label>
inactive

$$$$
>  <molecule>
Cn1c2ccccc2c2c3c(c4c5ccccc5n(CCCCCC#N)c4c21)C(=O)N(O)C3=O

>  <measurement_target>
MOLT-4 leukemia

>  <discrete_label>
active

$$$$
>  <molecule>
Cc1ccc2c(c1)C(=O)/C(=C/c1ccc(OCC(=O)c3ccccc3)cc1)O2

>  <measurement_target>
MOLT-4 leukemia

>  <discrete_label>
inactive

$$$$
>  <molecule>
COc1cc(-c2cnc3nonc3n2)c(OC)c2c1OCO2

>  <measurement_target>
MOLT-4 leukemia

>  <discrete_label>
inactive

$$$$
>  <molecule>
NCCN1CCN(c2nccc(-c3ccc4ccccc4c3)n2)CC1

>  <measurement_target>
MOLT-4 leukemia

>  <discrete_label>
inactive

$$$$
